- Measured target: human σ2 receptor (TMEM97) (Homo sapiens)
- Assay method text: biochemical
- Format: Expi293 membranes
- Protocol conditions: read-out: % of control remaining
// assign Met if remaining activity at 1 µM falls strictly below 70%, else Not met (ties count as Not met)

{"Smiles text": "COC(=O)C[C@H]1CCCN1C[C@@H](O)Cc1ccc(C(F)(F)F)cc1", "Measured target": "human σ2 receptor (TMEM97) (Homo sapiens)", "Label class": "Met"}
{"Smiles text": "COCC1(C(=O)N2CCC[C@@H](N(C)CC[C@H](C)F)C2)CC1", "Measured target": "human σ2 receptor (TMEM97) (Homo sapiens)", "Label class": "Not met"}
{"Smiles text": "C[C@H](c1ccccn1)N1CC=C(c2ccc(O)cc2)CC1", "Measured target": "human σ2 receptor (TMEM97) (Homo sapiens)", "Label class": "Met"}
{"Smiles text": "CN1CC[C@](O)(CN[C@@H](c2sccc2Br)C2CCCCC2)C1", "Measured target": "human σ2 receptor (TMEM97) (Homo sapiens)", "Label class": "Met"}
{"Smiles text": "Cc1cc(C(=O)N2CC[C@H](NCc3cccc(Cl)c3F)C2)ncn1", "Measured target": "human σ2 receptor (TMEM97) (Homo sapiens)", "Label class": "Not met"}
{"Smiles text": "NC(=O)C(=O)N1CCC(O)(CNC(=O)[C@H]2CCCCC2(F)F)CC1", "Measured target": "human σ2 receptor (TMEM97) (Homo sapiens)", "Label class": "Not met"}
{"Smiles text": "O=C1[C@H](N2C[C@@H]3CCC[C@H]3C2)CCN1c1ccccc1Cl", "Measured target": "human σ2 receptor (TMEM97) (Homo sapiens)", "Label class": "Not met"}

* * *

- Measured target: human σ2 receptor (TMEM97) (Homo sapiens)
- Assay method text: biochemical
- Format: Expi293 membranes
- Protocol conditions: read-out: % of control remaining

{"Smiles text": "C[C@@H](CNC(=O)C(=O)NCc1nnn(C)n1)N(C)Cc1ccccc1", "Unit abbreviation": "%", "remaining activity at 1 µM": 86.4}
{"Smiles text": "Cc1ccncc1N1CCN(C[C@H](O)CN2C[C@@H](C)O[C@H](C)C2)CC1", "Unit abbreviation": "%", "remaining activity at 1 µM": 50}
{"Smiles text": "CC(C)(NCc1ccc2c(c1)OCCO2)[C@H](O)c1ccccc1", "Unit abbreviation": "%", "remaining activity at 1 µM": 3}
{"Smiles text": "CC(C)(C)OC(=O)N1CCC[C@@](C)(CNC[C@@H](O)c2c(F)cccc2F)C1", "Unit abbreviation": "%", "remaining activity at 1 µM": 17.6}
{"Smiles text": "CC(C)Cc1ccc(C(=O)Nc2ccc(OCCN3CCN(C)CC3)cc2)cc1", "Unit abbreviation": "%", "remaining activity at 1 µM": 75.6}
{"Smiles text": "CCc1cccc(C)c1NC(=O)CN1C[C@@H](N2CCCC2)C[C@H]1C", "Unit abbreviation": "%", "remaining activity at 1 µM": 115}
{"Smiles text": "Cc1ccnc2nc(C(=O)NCC3CN(CCCC4CCC4)C3)nn12", "Unit abbreviation": "%", "remaining activity at 1 µM": 92.8}
{"Smiles text": "C[C@@H]1CCN(CC(=O)N(C)[C@@H](C)c2ccc(F)c(F)c2)C[C@@H]1C", "Unit abbreviation": "%", "remaining activity at 1 µM": 20.4}

* * *

- Measured target: human σ2 receptor (TMEM97) (Homo sapiens, UniProt Q5BJF2)
- Sequence (Q5BJF2 whole entry): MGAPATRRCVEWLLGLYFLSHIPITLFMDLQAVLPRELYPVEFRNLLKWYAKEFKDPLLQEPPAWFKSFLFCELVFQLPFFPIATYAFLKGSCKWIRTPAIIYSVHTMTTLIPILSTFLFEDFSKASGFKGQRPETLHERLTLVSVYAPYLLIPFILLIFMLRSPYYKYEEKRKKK
- Assay method text: biochemical
- Type: Expi293 membranes
- Protocol conditions: read-out: % of control remaining
# Yes = remaining activity at 1 µM below 60% (exclusive); No = remaining activity at 1 µM at/above 60%

{"Molecule": "Fc1c(CN2CCN(C[C@@H]3CCCO3)CC2)ccc(Br)c1Cl [ZINC001237901728]", "Label class": "Yes"}
{"Molecule": "O=C(N[C@H]1CCOC2(CCC2)C1)N1CCC(N2CC[C@@H](O)C2)CC1 [ZINC000664479370]", "Label class": "No"}
{"Molecule": "NC[C@@H](NC(=O)C(=O)NCCN1CCSCC1)C1CCCC1 [ZINC000420063417]", "Label class": "No"}
{"Molecule": "N#Cc1csc(CN2CCC[C@H]2Cc2ccccc2)c1 [ZINC000124982852]", "Label class": "No"}
{"Molecule": "O=C(CN1CCC(c2nc3cc(Cl)ccc3o2)CC1)N1CCC1 [ZINC000298791523]", "Label class": "No"}
{"Molecule": "Cc1ccc(NC(=O)CN2CCC[C@@H](C3OCCO3)C2)cc1Cl [ZINC000263644082]", "Label class": "No"}
{"Molecule": "CS[C@H]1CCN([C@H](C)c2nc(-c3ccccc3C)no2)C1 [ZINC000296435291]", "Label class": "No"}
{"Molecule": "C[C@H](C(=O)NCc1ccc(Cl)cc1)N1CC[C@@H](c2cccnc2)C1 [ZINC000571080072]", "Label class": "No"}
{"Molecule": "CN1CCC[C@@H]1C(=O)NC[C@H]1CCCN1c1ncnc2scnc12 [ZINC001061317651]", "Label class": "No"}
{"Molecule": "Cc1noc(C)c1CNC(=O)C(=O)N1CCN(C2CCCC2)CC1 [ZINC000283462313]", "Label class": "No"}
{"Molecule": "CCOC(=O)[C@@H](CC)N1CCN(C2CCC(C(C)C)CC2)CC1 (stereo partly drawn) [ZINC000440321606]", "Label class": "Yes"}
{"Molecule": "CCOc1cc2c(cc1NC(=O)C[C@@H]1NCc3ccccc31)O[C@@H](C)C2 [ZINC000659267272]", "Label class": "No"}
{"Molecule": "C[C@@H](Cc1c(Cl)cccc1Cl)NC(=O)c1cn(C[C@@H]2CCCN2)nn1 [ZINC000646273308]", "Label class": "No"}
{"Molecule": "CC(C)(C(=O)N[C@@H]1CCCc2cc(N)ccc21)[C@H](N)c1ccccc1 [ZINC000417806012]", "Label class": "No"}
{"Molecule": "COc1ccc(-c2ccccc2)cc1CNCCC1(O)CCOCC1 [ZINC000285662957]", "Label class": "Yes"}
{"Molecule": "CC(C)(CO)N1CCN(c2nc3c(Br)cccc3s2)CC1 [ZINC000621267824]", "Label class": "Yes"}

* * *

- Measured target: UniProt Q5BJF2
- Assay method text: biochemical
- Assay type: Expi293 membranes
- Protocol conditions: read-out: % of control remaining
remaining activity at 1 µM strictly under 90% means 1; at 90% or over means 0.

{"Compound": "CCC[C@@H](C(=O)N(C)C[C@H]1CCCN1C)c1ccccc1 [ZINC000421701270]", "Measured target": "UniProt Q5BJF2", "Label class": 1}
{"Compound": "CO[C@@H]1CN(C(=O)NCc2ccnc(N3CCN(C)CC3)c2)CCO1 [ZINC000891830660]", "Measured target": "UniProt Q5BJF2", "Label class": 0}
{"Compound": "Cc1c(CNC(=O)C(=O)N2CC[C@@H](C3CCN(C)CC3)C2)cnn1C [ZINC000287105318]", "Measured target": "UniProt Q5BJF2", "Label class": 0}
{"Compound": "Fc1cccc(Cl)c1CNC1CCC2(CCCO2)CC1 (stereo not shown) [ZINC000584028046]", "Measured target": "UniProt Q5BJF2", "Label class": 1}
{"Compound": "C[C@H]1[C@H](N(C)C)CCN1c1snc(Cl)c1C#N [ZINC000820594289]", "Measured target": "UniProt Q5BJF2", "Label class": 0}
{"Compound": "C[C@H]1CN/C(=N/CCCc2c(Cl)cccc2Cl)N1 [ZINC000849049798]", "Measured target": "UniProt Q5BJF2", "Label class": 1}
{"Compound": "CN1CC[C@H](C(=O)NC2CN(C(=O)Cc3ccc(F)cn3)C2)CC1=O [ZINC000995125582]", "Measured target": "UniProt Q5BJF2", "Label class": 0}
{"Compound": "C(=C\\c1ccccc1)/CNc1ccc2c(n1)CCC2 [ZINC001156463732]", "Measured target": "UniProt Q5BJF2", "Label class": 1}
{"Compound": "C[C@@H](c1ccccc1)[C@@H](O)CN1CCC(c2c[nH]c3ncccc23)CC1 [ZINC000450573233]", "Measured target": "UniProt Q5BJF2", "Label class": 1}
{"Compound": "COC(=O)[C@@]1(C)CCCN(C(=O)C(=O)N[C@@H](C)Cc2ccncc2)C1 [ZINC000422349618]", "Measured target": "UniProt Q5BJF2", "Label class": 0}
{"Compound": "FC(F)(F)c1ccnc([C@H]2CCN(CCCc3ccc4c(c3)CCO4)C2)n1 [ZINC001308961074]", "Measured target": "UniProt Q5BJF2", "Label class": 1}
{"Compound": "C[C@@H]1CCCC[C@H]1OCCNC(=O)NC[C@H]1CCCCN(C)C1 [ZINC000623468108]", "Measured target": "UniProt Q5BJF2", "Label class": 1}
{"Compound": "O=C(CN1CCC[C@@H]1[C@@H]1CCC[C@H]1O)N1CCOC[C@H]1C1CC1 [ZINC000649929688]", "Measured target": "UniProt Q5BJF2", "Label class": 0}
{"Compound": "O=C(N[C@@H]1CCN(CCC2CCCC2)C[C@@H]1O)C1(C(F)F)CCC1 [ZINC001099969021]", "Measured target": "UniProt Q5BJF2", "Label class": 1}
{"Compound": "O=C(NC[C@H]1CCCN1)Nc1cc(F)cc(F)c1Br [ZINC000415549177]", "Measured target": "UniProt Q5BJF2", "Label class": 1}
{"Compound": "CC[C@@H]1[C@@H](NC(=O)Cc2ccc(C)cc2)CCN1C[C@@H]1CCOC1 [ZINC001087646081]", "Measured target": "UniProt Q5BJF2", "Label class": 0}
{"Compound": "Cc1ccccc1-n1cc(CN2CCC[C@@H]([C@H]3CCCCO3)C2)nn1 [ZINC000668631550]", "Measured target": "UniProt Q5BJF2", "Label class": 1}
{"Compound": "c1ccc(N2CCC(NC[C@@H]3C[C@H]4CCC[C@@H]4O3)CC2)cc1 [ZINC000872109019]", "Measured target": "UniProt Q5BJF2", "Label class": 1}
{"Compound": "CC(C)Cc1ccc(C(=O)N2CCN([C@@H]3CCC[C@@H]3O)CC2)cc1 [ZINC000592403811]", "Measured target": "UniProt Q5BJF2", "Label class": 0}
{"Compound": "C[C@@H]1CCC[C@H](NC(=O)CN2CCN(CCC3=CCCCC3)CC2)C1 [ZINC000450551910]", "Measured target": "UniProt Q5BJF2", "Label class": 1}
{"Compound": "CN(C(=O)C[C@@H]1CSCCN1)[C@@H]1CCCN(c2cccnn2)C1 [ZINC000133744458]", "Measured target": "UniProt Q5BJF2", "Label class": 1}
{"Compound": "CS[C@@H]1CCN(Cc2cnc(C)n2-c2ccccc2)C1 [ZINC000295103757]", "Measured target": "UniProt Q5BJF2", "Label class": 0}
{"Compound": "O=C(Nc1cnc2ccccc2c1)[C@]1(O)CCN(Cc2ccccc2)C1 [ZINC000524392254]", "Measured target": "UniProt Q5BJF2", "Label class": 0}
{"Compound": "CN1CCC[C@H]1C(=O)NCC1(O)CN(C(=O)CCc2ncccn2)C1 [ZINC001042098162]", "Measured target": "UniProt Q5BJF2", "Label class": 0}
{"Compound": "Cc1c(C(=O)NCC2CCCC2)cnc2c1c(=O)n(C)c(=O)n2C [ZINC000438905691]", "Measured target": "UniProt Q5BJF2", "Label class": 0}
{"Compound": "C[C@@]1(C(=O)N[C@H]2CC23CCN(CC(=O)NC2CC2)CC3)CCNC1=O [ZINC001016825715]", "Measured target": "UniProt Q5BJF2", "Label class": 0}
{"Compound": "N#Cc1ccccc1NC(=O)CCN1CCC(O)(c2c(F)cccc2F)CC1 [ZINC000186482223]", "Measured target": "UniProt Q5BJF2", "Label class": 0}
{"Compound": "C[C@@H]1CCC[C@@H](NC(=O)CN2CCN(CC[C@@H]3CCOC3)CC2)C1 [ZINC000438095302]", "Measured target": "UniProt Q5BJF2", "Label class": 1}
{"Compound": "Cc1ccc(C(=O)NC[C@H]2CN(C(=O)[C@@H]3CCN(C)C3)CCCO2)o1 [ZINC001019525589]", "Measured target": "UniProt Q5BJF2", "Label class": 1}
{"Compound": "C[C@@H](Cn1cc(Br)cn1)NCCOc1ccc2c(c1)OCO2 [ZINC000133991118]", "Measured target": "UniProt Q5BJF2", "Label class": 1}
{"Compound": "C[C@@H]1CCC[C@H](CCN(C)CCNC(=O)c2c3c(nn2C)CCC3)C1 [ZINC001399642198]", "Measured target": "UniProt Q5BJF2", "Label class": 1}
